- TARGET SYSTEM: CDK9 (Homo sapiens, UniProt P50750)
- Construct: host or cells: HEK293-CDK9-Hibit
- Sequence (P50750 whole entry): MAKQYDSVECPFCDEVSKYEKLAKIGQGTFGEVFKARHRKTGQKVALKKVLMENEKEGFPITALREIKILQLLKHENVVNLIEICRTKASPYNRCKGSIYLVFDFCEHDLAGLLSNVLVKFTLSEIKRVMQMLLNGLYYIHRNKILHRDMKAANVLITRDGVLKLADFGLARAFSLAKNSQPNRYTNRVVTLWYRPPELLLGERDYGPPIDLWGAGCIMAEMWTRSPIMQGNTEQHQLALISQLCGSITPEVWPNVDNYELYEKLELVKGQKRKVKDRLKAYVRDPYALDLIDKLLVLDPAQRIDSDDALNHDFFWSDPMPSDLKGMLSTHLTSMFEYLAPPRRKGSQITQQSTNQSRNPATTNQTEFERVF
- PROCEDURE SUMMARY: HiBit Assay Protocol for CDK9 (HIBIT protein quantification, degradation)
- Assay type: cell-based
- MEASUREMENT SETUP: 6 h, HEK293-CDK9-Hibit cells, compound treatment for 6 hours; read-out: CDK9 HIBIT Protein Quantification Maximum

{"COMPOUND": "CC1CCCC1N1C(=O)C2(CC2)c2cnc(NC3CCN(S(=O)(=O)N4CCN(CC5CCN(c6cccc7c6n(C)c(=O)n7C6CCC(=O)NC6=O)CC5)CC4)CC3)nc21 (centres unmarked)", "Dmax / %": 14}
{"COMPOUND": "CC1CCCC1N1C(=O)C2(CC2)c2cnc(NC3CCN(S(=O)(=O)N4CC5(CCN(C(=O)CCCCCCCCCc6ccc7c(c6)n(C)c(=O)n7C6CCC(=O)NC6=O)CC5)C4)CC3)nc21 (centres unmarked)", "Dmax / %": 24}
{"COMPOUND": "CC1CCCC1N1C(=O)C2(CC2)c2cnc(NC3CCN(S(=O)(=O)N4CC5(CCCN(C(=O)CCCCCCCCCc6cccc7c6n(C)c(=O)n7C6CCC(=O)NC6=O)C5)C4)CC3)nc21 (centres unmarked)", "Dmax / %": 17}
{"COMPOUND": "C[C@H](c1cccc(S(=O)(=O)N2CC[C@H](Nc3ncc4c(n3)N([C@@H]3CCC[C@@H](O)C3)C(=O)C43CC3)[C@H](F)C2)c1)N1CCN(c2ccc3c(N4CCC(=O)NC4=O)nn(C)c3c2)[C@H](C)C1", "Dmax / %": 14}
{"COMPOUND": "CC1CCCC1N1C(=O)C2(CC2)c2cnc(NC3CCN(S(=O)(=O)N4CCCN(C(=O)CCCCc5cccc6c5n(C)c(=O)n6C5CCC(=O)NC5=O)CC4)CC3)nc21 (centres unmarked)", "Dmax / %": 34}
{"COMPOUND": "CC1CCCC1N1C(=O)C2(CC2)c2cnc(NC3CCN(S(=O)(=O)C4CCCN(C(=O)CCCCc5cccc6c5n(C)c(=O)n6C5CCC(=O)NC5=O)C4)CC3)nc21 (centres unmarked)", "Dmax / %": 23}
{"COMPOUND": "Cn1nc(N2CCC(=O)NC2=O)c2ccc(C3CCN(Cc4cccc(S(=O)(=O)N5CCC(Nc6ncc7c(n6)N([C@@H]6CCC[C@@H](O)C6)C(=O)C76CC6)CC5)n4)CC3)cc21", "Dmax / %": 18}
{"COMPOUND": "CC1CCCC1N1C(=O)C2(CC2)c2cnc(NC3CCN(S(=O)(=O)N4CC5CN(C(=O)CCCCc6cccc7c6n(C)c(=O)n7C6CCC(=O)NC6=O)CC54)CC3)nc21 (centres unmarked)", "Dmax / %": 11}
{"COMPOUND": "CC1CCCC1N1C(=O)C2(CC2)c2cnc(NC3CCN(S(=O)(=O)N4CCC5(CCCN5C(=O)CCCc5cccc6c5n(C)c(=O)n6C5CCC(=O)NC5=O)C4)CC3)nc21 (centres unmarked)", "Dmax / %": 15}
{"COMPOUND": "C[C@@H]1CN([C@@H](C)c2cccc(S(=O)(=O)N3CC[C@H](Nc4ncc5c(n4)N([C@@H]4CCC[C@@H](O)C4)C(=O)C54CC4)[C@H](F)C3)c2)CCN1c1ccc2c(N3CCC(=O)NC3=O)nn(C)c2c1", "Dmax / %": 16}
{"COMPOUND": "CC1CCCC1N1C(=O)C2(CC2)c2cnc(NC3CCN(S(=O)(=O)N4CCN(C(=O)CCCCCc5cccc6c5n(C)c(=O)n6C5CCC(=O)NC5=O)CC4)CC3)nc21 (centres unmarked)", "Dmax / %": 57}
{"COMPOUND": "C[C@@H]1CN(c2ccc3c(N4CCC(=O)NC4=O)nn(C)c3c2)CCN1[C@H](C)c1cccc(S(=O)(=O)N2CC[C@H](Nc3ncc4c(n3)N([C@@H]3CCC[C@@H](O)C3)C(=O)C43CC3)[C@H](F)C2)c1", "Dmax / %": 9}
{"COMPOUND": "CC1CCCC1N1C(=O)C2(CC2)c2cnc(NC3CCN(S(=O)(=O)N4CCC5(CCN(C(=O)CCCc6ccc7c(c6)n(C)c(=O)n7C6CCC(=O)NC6=O)C5)C4)CC3)nc21 (centres unmarked)", "Dmax / %": 17}
{"COMPOUND": "CC1CCCC1N1C(=O)C2(CC2)c2cnc(NC3CCN(S(=O)(=O)N4CCCC45CCN(C(=O)CCCc4ccc6c(c4)n(C)c(=O)n6C4CCC(=O)NC4=O)C5)CC3)nc21 (centres unmarked)", "Dmax / %": 14}
{"COMPOUND": "CC1CCCC1N1C(=O)C2(CC2)c2cnc(NC3CCN(S(=O)(=O)N4CC5(CCN(C(=O)CCCc6cccc7c6n(C)c(=O)n7C6CCC(=O)NC6=O)CC5)C4)CC3)nc21 (centres unmarked)", "Dmax / %": 75}
{"COMPOUND": "CC1CCCC1N1C(=O)C2(CC2)c2cnc(NC3CCN(S(=O)(=O)N4CC5(CN(C(=O)CCCc6cccc7c6n(C)c(=O)n7C6CCC(=O)NC6=O)C5)C4)CC3)nc21 (centres unmarked)", "Dmax / %": 57}
{"COMPOUND": "CC1CCCC1N1C(=O)C2(CC2)c2cnc(NC3CCN(S(=O)(=O)N4CC5(CCCN(C(=O)CCc6cccc7c6n(C)c(=O)n7C6CCC(=O)NC6=O)C5)C4)CC3)nc21 (centres unmarked)", "Dmax / %": 5}
{"COMPOUND": "CC1CCCC1N1C(=O)C2(CC2)c2cnc(NC3CCN(S(=O)(=O)C4CCN(C(=O)CCCCCc5ccc6c(c5)n(C)c(=O)n6C5CCC(=O)NC5=O)C4)CC3)nc21 (centres unmarked)", "Dmax / %": 14}
{"COMPOUND": "CC1CCCC1N1C(=O)C2(CC2)c2cnc(NC3CCN(S(=O)(=O)N4CC5CN(C(=O)CCCCc6cccc7c6n(C)c(=O)n7C6CCC(=O)NC6=O)CC5C4)CC3)nc21 (centres unmarked)", "Dmax / %": 26}
{"COMPOUND": "Cn1nc(N2CCC(=O)NC2=O)c2ccc(C3CCN(Cc4cccc(S(=O)(=O)N5CCC(Nc6ncc7c(n6)N([C@@H]6CCC[C@@H](O)C6)C(=O)C76CC6)CC5)c4)CC3)cc21", "Dmax / %": 14}
